The reported measurements were obtained from ChEMBL document CHEMBL1125677.

The following compounds are shown together with reported MIC values.
Tested on: Serratia marcescens
Experiment: Minimum inhibitory concentration was measured against Serratia marcescens S69.
Format: functional

The following compounds have reported results that may help.
CC(=O)NCC1OC(OC2C(O)C(OC3OC(CN)C(O)C(O)C3N)C(N)CC2(N)CO)C(O)C(N)C1O (stereo unspecified) : > 64 µg/mL
NCC1OC(OC2C(N)CC(N)(CO)C(OC3OC(CCl)C(O)C(N)C3O)C2O)C(N)C(O)C1O (stereo unspecified) : > 64 µg/mL
NC[C@H]1O[C@H](O[C@H]2[C@H](O)[C@@H](O[C@H]3O[C@H](CO)[C@@H](O)[C@H](N)[C@H]3O)[C@H](N)C[C@@H]2N)[C@H](N)[C@@H](O)[C@@H]1O [BEKANAMYCIN] : > 64 µg/mL

Ask: Which value of MIC has been reported for [N-]=[N+]=NCC1OC(OC2C(O)C(OC3OC(CN)C(O)C(O)C3N)C(N)CC2(N)CO)C(O)C(N)C1O (stereo unspecified) in the records?
Reply: > 64 µg/mL

Ask: Which value of MIC has been reported for NCC[C@H](O)C(=O)N[C@@H]1C[C@H](N)[C@@H](O[C@H]2O[C@H](CN)[C@@H](O)[C@H](O)[C@H]2O)[C@H](O)[C@H]1O[C@H]1O[C@H](CO)[C@@H](O)[C@H](N)[C@H]1O [AMIKACIN] in the records?
Reply: 2 µg/mL

Ask: Which value of MIC has been reported for NCC1OC(OC2C(N)CC(N)(CO)C(OC3OC(CO)C(O)C(N)C3O)C2O)C(N)C(O)C1O (stereo unspecified) in the records?
Reply: > 64 µg/mL
